These measurements were taken from patent US8927500B2.

// pIC50 lookup, one value per entry
molecular target: MDMX (Homo sapiens); test: Competitive fluorescence polarization assay for MDMX; type: binding; conditions: competitive FP assay, read-out: IC50 (MDMX)
Sequence (O15151 1-125): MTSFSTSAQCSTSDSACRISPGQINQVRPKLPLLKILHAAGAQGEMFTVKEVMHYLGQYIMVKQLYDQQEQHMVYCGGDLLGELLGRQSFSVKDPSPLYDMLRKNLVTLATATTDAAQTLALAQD
pIC50: −log10 of the molar value. Where a SMILES comes first, the peptide text is derived from it. Bridges are numbered along the chain shown (N, C = ends). [ ]: non-standard residue; d: D form. R8 = C=CCCCCCC[C@@](C)(N)C(=O)O; Cba = N[C@@H](CC1CCC1)C(=O)O; S5 = C=CCCC[C@](C)(N)C(=O)O; Nle = CCCC[C@H](N)C(=O)O

Some solved entries appear below for comparison.
{"Compound": "CC(=O)N[C@@H](C(=O)N[C@H](C)C(=O)N[C@H](Cc1c[nH]c2ccccc12)C(=O)N[C@H](Cc1ccc(O)cc1)C(=O)N[C@H](C)C(=O)N[C@]1(C)CCCC=CCCC[C@](C)(C(=O)N[C@H](CC(C)C)C(=O)N[C@H](CCCNC(=N)N)C(N)=O)NC(=O)[C@@H](CCCCN)NC(=O)[C@@H](CCC(=O)O)NC(=O)[C@@H](Cc2ccc(C(F)(F)F)cc2)NC1=O)[C@H](C)O [compound 754]", "pIC50": "< 6.00"}
{"Compound": "CC(=O)N[C@@H](C)C(=O)N[C@@H](CC(C)C)C(=O)N[C@H](C(=O)N[C@@H](Cc1ccccc1)C(=O)N[C@]1(C)CCCCCCC=CCCC[C@@](C)(C(=O)N[C@@H](CO)C(=O)N[C@@H](C)C(=O)N[C@@H](C)C(=O)N[C@H](C)C(N)=O)NC(=O)[C@H](CC2CCC2)NC(=O)[C@H](CCC(N)=O)NC(=O)[C@H](C)NC(=O)[C@H](Cc2c[nH]c3ccccc23)NC(=O)[C@H](Cc2ccc(O)cc2)NC(=O)[C@H](CCC(=O)O)NC1=O)[C@@H](C)O (single isomer, unassigned) [compound 355]", "pIC50": "7.00 to 8.00"}
{"Compound": "CCCC[C@H](NC(=O)[C@H](C)NC(=O)[C@H](CO)NC(=O)[C@]1(C)CCCC=CCCCCCC[C@@](C)(NC(=O)[C@H](Cc2ccccc2)NC(=O)[C@@H](NC(=O)[C@H](CC(C)C)NC(C)=O)[C@@H](C)O)C(=O)N[C@@H](CCC(=O)O)C(=O)N[C@@H](Cc2ccc(O)cc2)C(=O)N[C@@H](Cc2c[nH]c3ccccc23)C(=O)N[C@@H](Cc2c[nH]c3ccccc23)C(=O)N[C@@H](CCC(N)=O)C(=O)N[C@@H](CC2CCC2)C(=O)N1)C(=O)N[C@@H](C)C(N)=O [compound 246] (Ac-LTF[R8]EYWWQ[Cba][S5]SA[Nle]A-NH2; staple 4-11)", "pIC50": "6.00 to 7.00"}

What value of pIC50 has been reported for the following compound? CC(=O)N[C@@H](CC(C)C)C(=O)N[C@H](C(=O)N[C@@H](Cc1ccccc1)C(=O)N[C@]1(C)CCCCCCC=CCCC[C@@](C)(C(=O)N[C@@H](CO)C(=O)N[C@@H](C)C(=O)N[C@@H](Cc2ccccc2)C(N)=O)NC(=O)[C@H](CC2CCC2)NC(=O)[C@H](CCC(N)=O)NC(=O)[C@H](Cc2c[nH]c3ccccc23)NC(=O)[C@H](Cc2c[nH]c3ccccc23)NC(=O)[C@H](Cc2ccc(O)cc2)NC(=O)[C@H](C)NC1=O)[C@@H](C)O [compound 263] (Ac-LTF[R8]AYWWQ[Cba][S5]SAF-NH2; staple 4-11)
6.00 to 7.00
